Origin of measurements: paper PMC5689172

# Tested on: B. subtilis ATCC 6633
# assay remarks: Antimicrobial activity, agar dilution method
# Format: cell-based
# protocol conditions: Bacillus subtilis, ATCC6633
// returns no unless MIC is strictly below 30 µM, in which case yes

Data request: Strictly below 30 µM in MIC? Oc1c(I)cc(Cl)c2cccnc12
Data returned: yes

* * *

# Tested on: S. Enteritidis
// returns 0 unless MIC is strictly below 200 µM, in which case 1

Data request: Strictly below 200 µM in MIC? Oc1c(I)cc(I)c2cccnc12
Data returned: 0

Data request: Strictly below 200 µM in MIC? Nc1ccc(O)c2ncccc12 [5-amino-8HQ (8), 5-Amino-8-hydroxyquinoline]
Data returned: 0

Data request: Strictly below 200 µM in MIC? Oc1c(I)cc(Cl)c2cccnc12
Data returned: 1

Data request: Strictly below 200 µM in MIC? O=[N+]([O-])c1ccc(O)c2ncccc12
Data returned: 1

Data request: Strictly below 200 µM in MIC? Oc1ccc(Cl)c2cccnc12
Data returned: 1

Data request: Strictly below 200 µM in MIC? Oc1cccc2cccnc12 [8HQ (1), 8-Hydroxyquinoline]
Data returned: 0

* * *

# assay remarks: Cytotoxicity, MTT assay
# Assay type: cell-based
# protocol conditions: human, MRC-5 cells (normal embryonic lung cell line)
experimental endpoint: IC50 at 48 h (µM)
Report the value in µM with no unit label.

Some molecules with recorded IC50 at 48 h:
1) Oc1c(I)cc(Cl)c2cccnc12 = 76.2
2) O=[N+]([O-])c1ccc(O)c2ncccc12 = 88.1

Value of IC50 at 48 h reported for the molecule Oc1ccc(Cl)c2cccnc12 is 81.7

Value of IC50 at 48 h reported for the molecule COc1cccc2c1C(=O)c1c(O)c3c(c(O)c1C2=O)C[C@@](O)(C(=O)CO)C[C@@H]3O[C@H]1C[C@H](N)[C@H](O)[C@H](C)O1 is 0.62

Value of IC50 at 48 h reported for the molecule Nc1ccc(O)c2ncccc12 [5-amino-8HQ (8), 5-Amino-8-hydroxyquinoline] is 22.1

* * *

Let's go through some MIC measurements on B. subtilis ATCC 6633 together.
Report the value in µM with no unit label.

Some compounds with recorded MIC:
1) Oc1c(I)cc(I)c2cccnc12 = 80.6
2) O=[N+]([O-])c1ccc(O)c2ncccc12 = 42.1
3) Oc1ccc(Cl)c2cccnc12 = 22.3
4) Oc1cccc2cccnc12 [8HQ (1), 8-Hydroxyquinoline] = 6.89

Next compound, please.
B. subtilis ATCC 6633 assay, compound Nc1ccc(O)c2ncccc12 [5-amino-8HQ (8), 5-Amino-8-hydroxyquinoline] , recorded MIC = 275
